Form field: Ratio (one value per entry).
# Species: Homo sapiens
# procedure_details: Selectivity ratio of relative binding affinity for human ERbeta to relative binding affinity for human ERalpha
Would you mind answering with just the numeric figure?

The examples below pair each entry with its known result.
C#C[C@]1(O)CC[C@@H]2C[C@@H](c3ccc(O)cc3)CC[C@@]21C: 1.3
C[C@]12CC[C@H](c3ccc(O)cc3)C[C@H]1CC[C@@H]2O: 14.6
C[C@]12CC[C@H](c3cc(F)c(O)c(F)c3F)C[C@H]1CC[C@@H]2O: 9.3
C[C@]12CC[C@H](c3cc(F)c(O)c(F)c3)C[C@H]1CC[C@@H]2O: 6.9
C[C@]12CC[C@H](c3cc(Cl)c(O)c(Cl)c3)C[C@H]1CC[C@@H]2O: 0.5
C[C@]12CC=C(c3ccc(O)cc3Cl)C[C@H]1CC[C@@H]2O: 2.3

Provide Ratio value for the following molecule: C[C@]12CC[C@H](c3ccc(O)c(F)c3F)C[C@H]1CC[C@@H]2O
9.3

Provide Ratio value for the following molecule: Cc1c(O)ccc([C@H]2CC[C@@]3(C)[C@H](CC[C@@H]3O)C2)c1C
2.8

Provide Ratio value for the following molecule: Cc1cc(O)ccc1[C@H]1CC[C@@]2(C)[C@H](CC[C@@H]2O)C1
11.9

Provide Ratio value for the following molecule: C[C@]12CC[C@H](c3ccc(O)cc3)C[C@H]1CCC2=O
14
